Provide the reported lowest phenotypically active concentration of each item.
- Tested on: HepG2-TUBA1B-RELA
- TEST METHOD NOTES: lowest phenotypically active concentration; higher = less potent
- EXPERIMENTAL CONTEXT: treatment time: 24 h
Answers are plain numbers, in µM.

Solved cases (6 shown):
COMPOUND	UNIT DESCRIPTOR	DATA VALUE
COCC(=O)O[C@]1(CCN(C)CCCc2nc3ccccc3[nH]2)CCc2cc(F)ccc2[C@@H]1C(C)C [mibefradil]	µM	3
CNCCCN1c2ccccc2CCc2ccccc21 [desipramine]	µM	9
CCc1cncnc1N1CCN(Cc2nc3cc(C(F)(F)F)ccc3[nH]2)CC1	µM	3
COc1cc(N2CCC(N3CCN(C)CC3)CC2)ccc1Nc1ncnc(Nc2ccccc2S(=O)(=O)C(C)C)n1	µM	9
O=S(=O)(c1cccc2cnccc12)N1CCCNCC1 [fasudil]	µM	9
CC[C@@H](N)CNc1ccnc(-c2cc(-c3cnn(C)c3)ccc2O)n1	µM	1

Respectfully, I request lowest phenotypically active concentration for each entry included below.
1. O=C(NCCN1CCC(n2c(=O)[nH]c3ccccc32)CC1)c1cc2cc(F)ccc2[nH]1
2. CN(C)CCCN1c2ccccc2CCc2ccc(Cl)cc21 [clomipramine]
3. COc1cc(-c2cn(C)c(=O)c3cnccc23)c(OC)cc1CN(C)C
4. CN(C)CC(O)Cn1c2ccc(Br)cc2c2cc(Br)ccc21 (centres undefined) [Wiskostatin]
5. O=C(/C=C/c1ccc2ccccc2n1)c1ccncc1
6. Cc1cccc(C)c1OCC(=O)N[C@@H](Cc1ccccc1)[C@@H](O)C[C@H](Cc1ccccc1)NC(=O)[C@H](C(C)C)N1CCCNC1=O [lopinavir]

-- reply
1: 9; 2: 9; 3: 9; 4: 3; 5: 9; 6: 9
